Listing of entries alongside the reported IC50.
biological target: KRas G12D (Homo sapiens (Human), UniProt P01116, G12D); assay: KRas G12D Binding Assay (TR-FRET displacement of Cy5 labelled tracer); conditions: GDP-loaded KRAS G12D (amino acids 1:169), 60 minute incubation at 22° C.
Sequence (P01116 other isoform, or with tags, fused parts or gaps G12D): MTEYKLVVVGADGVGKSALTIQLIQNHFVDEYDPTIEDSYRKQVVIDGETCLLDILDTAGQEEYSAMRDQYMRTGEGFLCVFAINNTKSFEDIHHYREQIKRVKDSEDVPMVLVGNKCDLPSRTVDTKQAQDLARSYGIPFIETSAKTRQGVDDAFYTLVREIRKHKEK
Express it in nM; write the number only.

Oc1cc(-c2ncc3c(N4C[C@H]5CC[C@@H](C4)N5)nc(OCCC(F)(F)F)nc3c2F)c2c(Cl)cccc2c1 ... 76.3

Req: Observed IC50 on KRas G12D (Homo sapiens (Human), UniProt P01116, G12D) for O=C(O[C@@H]1CN2CCC[C@]2(COc2nc(N3C[C@H]4CC[C@@H](C3)N4)c3cnc(-c4cccc5cccc(Cl)c45)c(F)c3n2)C1)N1CCOCC1 , please.
Resp: 48.3

Req: Observed IC50 on KRas G12D (Homo sapiens (Human), UniProt P01116, G12D) for Oc1cc(-c2ncc3c(N4C[C@H]5CC[C@@H](C4)N5)nc(OC[C@@H]4CCCN4)nc3c2F)c2ccccc2c1 , please.
Resp: 2.5

Req: Observed IC50 on KRas G12D (Homo sapiens (Human), UniProt P01116, G12D) for Fc1c(-c2ccccc2Cl)ncc2c(N3CC4CCC(C3)N4)nc(OC[C@@]34CCCN3C[C@H](F)C4)nc12 (stereo in doubt) , please.
Resp: 873

Req: Observed IC50 on KRas G12D (Homo sapiens (Human), UniProt P01116, G12D) for Fc1c(-c2cccc3cccc(Cl)c23)ncc2c(N3C[C@H]4CC[C@@H](C3)N4)nc(OCC34CCCN3CCC4)nc12 , please.
Resp: 5.5

Req: Observed IC50 on KRas G12D (Homo sapiens (Human), UniProt P01116, G12D) for Oc1cc(-c2ncc3c(N4C[C@H]5CC[C@@H](C4)N5)nc(OC[C@@H]4CC5CCN4C5)nc3c2F)c2ccccc2c1 , please.
Resp: 4

---

Biological target: KRas G12D (Homo sapiens (Human), UniProt P01116, G12D)
Assay: KRas G12D Binding Assay (TR-FRET displacement of Cy5 labelled tracer)
Conditions: GDP-loaded KRAS G12D (amino acids 1:169), 60 minute incubation at 22° C.
Protocol: After a 60 minute incubation at 22° C., the reaction was measured using a PerkinElmer EnVision multimode plate reader via TR-FRET dual wavelength detection, and the percent of control (POC) calculated using a ratiometric emission factor. […] The POC values were fit to a 4-parameter logistic curve and the IC50 value was determined as the concentration where the curve crosses 50 POC. ND stands for “not determined.”
measureName: IC50 (nM)
Express it in nM; write the number only.

// worked examples, IC50 included
CCC#Cc1cccc2cccc(-c3ncc4c(N5C[C@H]6CC[C@@H](C5)N6)nc(OCC56CCCN5CCC6)nc4c3F)c12 ... 82.2
CN1CCC(F)(COc2nc(N3C[C@H]4CC[C@@H](C3)N4)c3cnc(-c4cccc5cccc(Cl)c45)c(F)c3n2)CC1 ... 593
CN1C[C@H](Oc2cccc(S(=O)(=O)F)c2)C[C@H]1COc1nc(N2C[C@H]3CC[C@@H](C2)N3)c2cnc(-c3cccc4cccc(Cl)c34)c(F)c2n1 ... 1840
Oc1cc(Cl)c(C(F)(F)F)c(-c2ncc3c(N4C[C@H]5CC[C@@H](C4)N5)nc(OC[C@@]45CCCN4C[C@H](F)C5)nc3c2F)c1 ... 0.1
CN1CC[C@@H](Oc2nc(N3C[C@H]4CC[C@@H](C3)N4)c3cnc(-c4cccc5cccc(Cl)c45)c(F)c3n2)C1 ... 1980

Req: Value lookup for IC50; key = Oc1cc(-c2ncc3c(N4C[C@H]5CC[C@@H](C4)N5)nc(OCC4CCCC4)nc3c2F)c2ccccc2c1
Resp: 573
